# tgt: human B1R receptor (Homo sapiens, UniProt P46663)
# Construct: host or cells: CHO K1 cells (Chinese hamster ovary), stably transfected
# Sequence (P46663 whole entry): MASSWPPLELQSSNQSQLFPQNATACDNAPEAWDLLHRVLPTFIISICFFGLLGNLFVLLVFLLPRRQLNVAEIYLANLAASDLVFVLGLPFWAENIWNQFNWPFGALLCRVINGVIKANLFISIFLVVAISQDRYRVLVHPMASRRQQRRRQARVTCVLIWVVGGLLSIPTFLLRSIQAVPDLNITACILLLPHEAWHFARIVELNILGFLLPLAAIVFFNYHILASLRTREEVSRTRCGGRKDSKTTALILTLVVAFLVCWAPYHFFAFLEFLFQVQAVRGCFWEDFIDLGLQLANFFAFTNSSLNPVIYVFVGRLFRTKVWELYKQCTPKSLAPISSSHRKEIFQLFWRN
# measurement notes: Functional study on the bradykinin receptor 1 (B1R), FLIPR Ca2+ assay, hB1R cells
# Type: cell-based
# reported conditions: CHO-K1, test substance 10 μM, agonist Lys-Des-Arg9-bradykinin 0.5 nM, % inhibition compared with the maximum achievable inhibition, read-out: B1R Antagonism, human [10 μM] % Inhibition
# Source text: The agonistic or antagonistic action of substances can be quantified on the bradykinin receptor 1 (B1R) of the species human and rat with ectopically expressing cell lines (CHO K1 cells) and with the aid of a Ca^2+-sensitive dye (Fluo-4) using a fluorescent imaging plate reader (FLIPR). […] The agonistic or antagonistic action of substances can be determined on the bradykinin receptor 1 (B1R) of the species human and rat using the following assay. […]
Where a name gives a salt, the structure may show the parent alone.
measured endpoint: inhibition at 10 µM (%)
One number for each entry, in %.

Before answering, review these 3 worked examples.
COc1cc(C)c(S(=O)(=O)N2CCCCC2COCC(=O)NCc2ccc(CN3CCCCC3)cc2)c(C)c1 (stereo not drawn)
104
COc1cc(C)c(S(=O)(=O)N2CCCCC2COCC(=O)N2CCC(CCN3CCCC3)CC2)c(C)c1 (stereo not drawn) [Example 94, hydrochloride]
105
O=C(COCC1CCCN1S(=O)(=O)c1ccc(Cl)c(Cl)c1)N1CCN(Cc2ccc3c(c2)OCO3)CC1 (stereo not drawn)
69.6

Give inhibition at 10 µM for each listed item.
1. Cc1cc(Br)cc(C)c1S(=O)(=O)N1CCCCC1COCC(=O)N1CCC(CCN2CCCC2)CC1 (stereo not drawn)
2. O=C(COCC1CCCCN1S(=O)(=O)c1c(Cl)cccc1Cl)N1CCN(c2nc3ccc(Cl)cc3s2)CC1 (stereo not drawn)

Output:
1. 99.4
2. 25.2

Give inhibition at 10 µM for each listed item.
1. COc1cc(C)c(S(=O)(=O)N2CCCC2COCC(=O)N2CCN(c3ccc(C)c(C)c3)CC2)c(C)c1 (stereo not drawn)
2. COc1ccc(S(=O)(=O)N2c3ccccc3CC2COCC(=O)N2CCN(CCn3c(C)ccc3C)CC2)cc1 (stereo not drawn)
3. CCN1CCN(CCCNC(=O)COCC2CCCCN2S(=O)(=O)c2c(C)cc(OC)cc2C)CC1 (stereo not drawn)
4. Cc1cccc(Cl)c1S(=O)(=O)N1CCC[C@H]1COCC(=O)N1CCN(CC2CCN(C)CC2)CC1 [Example 163, dihydrochloride]
5. COc1cc(C)c(S(=O)(=O)N2CCCC2COCC(=O)N2CCC(CCN3CCCCC3)CC2)c(C)c1 (stereo not drawn)
6. COc1cc(C)c(S(=O)(=O)N2CCCCC2COCC(=O)Nc2ccncn2)c(C)c1 (stereo not drawn)
7. COc1cc(C)c(S(=O)(=O)N2CCCCC2COCC(=O)NCCCN2CCOCC2)c(C)c1 (stereo not drawn)
8. COc1cc(C)c(S(=O)(=O)N2CCCCC2COCC(=O)N2CCN(C3CCOCC3)CC2)c(C)c1 (stereo not drawn)

Output:
[56.6, 24.7, 101, 95, 104, -2.76, 48.8, 105]

Give inhibition at 10 µM for each listed item.
1. CCN1CCN(C(=O)COCC2CCCN2S(=O)(=O)c2c(Cl)cc(Cl)cc2Cl)CC1 (stereo not drawn)
2. COc1cc(C)c(S(=O)(=O)N2CCCC2COCC(=O)NCc2ccc(CN(C)C)cc2)c(C)c1 (stereo not drawn)

Output:
[96.7, 79.7]
